Target: Phosphatidylinositol 4,5-bisphosphate 3-kinase catalytic subunit delta isoform (Homo sapiens)
Sequence (O00329 whole entry): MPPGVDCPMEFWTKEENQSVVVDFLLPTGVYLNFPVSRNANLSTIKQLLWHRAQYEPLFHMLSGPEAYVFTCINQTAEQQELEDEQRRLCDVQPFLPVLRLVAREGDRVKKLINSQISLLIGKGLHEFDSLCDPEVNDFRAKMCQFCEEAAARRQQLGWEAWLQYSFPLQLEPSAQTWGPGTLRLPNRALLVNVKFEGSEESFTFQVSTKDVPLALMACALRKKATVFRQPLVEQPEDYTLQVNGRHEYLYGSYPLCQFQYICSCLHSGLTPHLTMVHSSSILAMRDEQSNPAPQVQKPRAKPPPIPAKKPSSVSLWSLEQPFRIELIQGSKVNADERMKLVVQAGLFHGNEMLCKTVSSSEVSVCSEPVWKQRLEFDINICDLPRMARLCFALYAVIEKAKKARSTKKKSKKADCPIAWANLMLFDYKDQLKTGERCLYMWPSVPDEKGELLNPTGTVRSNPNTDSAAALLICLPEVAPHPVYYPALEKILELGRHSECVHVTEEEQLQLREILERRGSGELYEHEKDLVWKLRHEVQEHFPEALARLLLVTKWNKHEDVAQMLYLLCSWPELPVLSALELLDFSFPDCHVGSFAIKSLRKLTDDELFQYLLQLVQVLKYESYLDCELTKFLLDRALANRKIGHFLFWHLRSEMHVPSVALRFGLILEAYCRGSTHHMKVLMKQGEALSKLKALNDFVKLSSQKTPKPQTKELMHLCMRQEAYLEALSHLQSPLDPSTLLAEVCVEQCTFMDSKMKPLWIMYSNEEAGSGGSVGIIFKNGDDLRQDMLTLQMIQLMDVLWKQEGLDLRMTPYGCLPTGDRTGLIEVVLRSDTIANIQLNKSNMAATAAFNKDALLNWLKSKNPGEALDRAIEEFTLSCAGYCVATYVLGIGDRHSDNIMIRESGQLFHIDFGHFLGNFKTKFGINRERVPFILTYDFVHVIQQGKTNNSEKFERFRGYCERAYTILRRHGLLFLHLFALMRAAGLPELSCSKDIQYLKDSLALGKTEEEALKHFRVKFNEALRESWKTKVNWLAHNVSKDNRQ
Assay: Inhibition of PI3Kdelta in human THP-1 cells assessed as reduction in M-CSF-stimulated AKT phosphorylation at Thr308 preincubated for 30 mins followed by M-CSF addition for 3 mins by ELISA
Documented IC50 across a set of compounds
Your answer is read as nM, so omit the unit and give the number.

>>> measured_result("Cc1ccn2nc([C@H](C)Nc3ncnc(N)c3-c3ccc(O)c(F)c3)n(-c3ccccc3)c(=O)c12")
4.4

Task item: Which IC50 is reported for this compound? `Cc1ccn2nc([C@H](C)Nc3ncnc4[nH]cc(-c5cc(NS(C)(=O)=O)cc6[nH]ccc56)c34)n(-c3ccccc3)c(=O)c12`
Reply: 2.7
